# Test target: Plasma kallikrein (Homo sapiens)
# Sequence (P03952 20-390 limits assumed): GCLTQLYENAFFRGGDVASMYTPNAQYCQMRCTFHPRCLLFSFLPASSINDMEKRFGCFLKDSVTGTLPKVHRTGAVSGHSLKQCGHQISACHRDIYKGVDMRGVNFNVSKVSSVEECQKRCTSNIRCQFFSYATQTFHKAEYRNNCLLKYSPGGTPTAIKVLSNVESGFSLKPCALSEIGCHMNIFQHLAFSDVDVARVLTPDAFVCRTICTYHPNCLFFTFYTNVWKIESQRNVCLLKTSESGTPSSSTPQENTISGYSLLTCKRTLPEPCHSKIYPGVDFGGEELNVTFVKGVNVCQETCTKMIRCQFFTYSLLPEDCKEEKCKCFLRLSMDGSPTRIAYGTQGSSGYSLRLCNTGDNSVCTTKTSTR
# Sequence (P03952 391-638 limits assumed): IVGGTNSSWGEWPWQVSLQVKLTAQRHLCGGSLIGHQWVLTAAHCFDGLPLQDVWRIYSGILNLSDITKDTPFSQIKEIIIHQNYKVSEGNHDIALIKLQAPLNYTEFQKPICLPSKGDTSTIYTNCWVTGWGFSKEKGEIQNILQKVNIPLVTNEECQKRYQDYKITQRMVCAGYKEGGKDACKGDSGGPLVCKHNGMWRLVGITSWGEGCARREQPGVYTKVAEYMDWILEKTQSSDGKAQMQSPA
# Protocol: Inhibitory Activity of Exemplary Compounds Against Plasma Kallikrein
Metric name: EC50

Form entry - test system: Plasma kallikrein (Homo sapiens); read-out: EC50; compound: COc1ccc(-n2cnnn2)c(CNC(=O)c2nnn(Cc3cn4cc(C5CC5)ccc4n3)n2)c1F [US11787796, Compound I-28]
< 1 nM
